Provide the reported Kd of each item.
- Study system: PARP-1 (Homo sapiens (Human), UniProt P09874)
- Sequence (P09874 whole entry): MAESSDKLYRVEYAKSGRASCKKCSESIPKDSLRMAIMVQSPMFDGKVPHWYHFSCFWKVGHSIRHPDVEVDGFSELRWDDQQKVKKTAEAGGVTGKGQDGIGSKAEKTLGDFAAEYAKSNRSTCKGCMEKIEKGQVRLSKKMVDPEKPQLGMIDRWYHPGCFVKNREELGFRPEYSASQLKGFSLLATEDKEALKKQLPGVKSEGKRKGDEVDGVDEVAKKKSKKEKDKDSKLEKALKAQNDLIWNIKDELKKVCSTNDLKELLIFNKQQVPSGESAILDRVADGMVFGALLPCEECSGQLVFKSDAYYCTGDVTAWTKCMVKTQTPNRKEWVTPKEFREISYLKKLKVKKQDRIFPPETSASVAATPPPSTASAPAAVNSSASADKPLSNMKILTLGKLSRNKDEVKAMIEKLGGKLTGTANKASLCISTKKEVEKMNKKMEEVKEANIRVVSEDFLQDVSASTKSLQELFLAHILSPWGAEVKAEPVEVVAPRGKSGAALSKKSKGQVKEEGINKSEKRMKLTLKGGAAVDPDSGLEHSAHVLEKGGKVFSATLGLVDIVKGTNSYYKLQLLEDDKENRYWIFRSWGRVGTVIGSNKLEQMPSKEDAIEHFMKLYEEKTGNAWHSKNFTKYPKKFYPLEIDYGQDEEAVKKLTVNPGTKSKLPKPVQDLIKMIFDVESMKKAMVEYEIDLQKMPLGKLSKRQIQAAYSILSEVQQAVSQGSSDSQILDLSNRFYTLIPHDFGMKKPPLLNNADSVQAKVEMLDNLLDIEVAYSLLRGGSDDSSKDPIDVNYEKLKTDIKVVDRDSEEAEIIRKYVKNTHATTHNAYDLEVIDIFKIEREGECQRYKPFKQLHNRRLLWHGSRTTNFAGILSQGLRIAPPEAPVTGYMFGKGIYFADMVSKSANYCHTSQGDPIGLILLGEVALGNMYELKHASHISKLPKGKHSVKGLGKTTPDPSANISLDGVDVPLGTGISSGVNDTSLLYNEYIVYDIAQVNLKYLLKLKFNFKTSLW
- Assay info: Fluorescence polarization displacement assay with probe of formula (IP), PARP-1
- Format: binding

[in] Sample NC(=O)c1cc(F)cc2c1C(=O)N(C1CCN(C3CCCCC3)CC1)C2 — what was its Kd?
[out] < 0.01 µM

[in] Sample NC(=O)c1cccc2c1C(=O)N(C1CCN(C3CCCCC3)CC1)C2 — what was its Kd?
[out] < 0.01 µM

[in] Sample NC(=O)c1cc(F)cc2c1C(=O)N(CCCN1CCOCC1)C2 — what was its Kd?
[out] < 0.03 µM

[in] Sample NC(=O)c1cccc2c1C(=O)N(CCCN1CCN(c3ccccc3)CC1)C2 — what was its Kd?
[out] < 0.03 µM

[in] Sample NC(=O)c1cccc2c1C(=O)N(CCCN1CCc3ccccc3C1)C2 — what was its Kd?
[out] < 0.03 µM

[in] Sample NC(=O)c1cccc2c1C(=O)N(CCCN1CCCc3ccccc31)C2 — what was its Kd?
[out] < 0.03 µM

====

- Study system: PARP-3 (Homo sapiens (Human), UniProt Q9Y6F1)
- Sequence (Q9Y6F1 whole entry): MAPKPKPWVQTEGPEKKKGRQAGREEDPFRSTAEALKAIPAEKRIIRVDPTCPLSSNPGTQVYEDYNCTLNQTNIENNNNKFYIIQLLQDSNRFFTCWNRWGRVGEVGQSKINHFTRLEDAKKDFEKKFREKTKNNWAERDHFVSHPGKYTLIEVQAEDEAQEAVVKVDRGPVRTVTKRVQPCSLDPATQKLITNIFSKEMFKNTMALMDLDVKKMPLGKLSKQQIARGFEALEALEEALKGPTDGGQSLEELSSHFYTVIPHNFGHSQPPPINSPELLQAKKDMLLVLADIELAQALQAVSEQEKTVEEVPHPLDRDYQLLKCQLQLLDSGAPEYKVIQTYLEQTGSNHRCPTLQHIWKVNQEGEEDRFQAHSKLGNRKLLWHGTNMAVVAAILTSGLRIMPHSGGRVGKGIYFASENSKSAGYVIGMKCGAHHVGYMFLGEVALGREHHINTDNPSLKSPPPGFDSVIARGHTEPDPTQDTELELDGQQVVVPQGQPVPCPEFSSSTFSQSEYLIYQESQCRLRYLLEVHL
- Assay info: Fluorescence polarization displacement assay with probe of formula (IP), PARP-3
- Assay type: binding
- Condition description: probe P1; read-out: PARP-3 (DC50 μM)
Provide the reported DC50 of each item.
Answer format: numeric, µM implied, no suffix.

[in] Sample NC(=O)c1cccc2c1C(=O)N(C1CCN(C3CCOCC3)CC1)C2 — what was its DC50?
[out] 5.48

[in] Sample NC(=O)c1cccc2c1C(=O)N(C1CCN(C3CCCCC3)CC1)C2 — what was its DC50?
[out] 2.06

[in] Sample NC(=O)c1cccc2c1C(=O)N(C1CCN(Cc3ccccn3)CC1)C2 — what was its DC50?
[out] 0.9

[in] Sample NC(=O)c1cccc2c1C(=O)N(C1CCN(Cc3ccccc3)CC1)C2 — what was its DC50?
[out] 0.35
